# TEST NAME: Clearance in rat at 10 mg/kg, iv
# Format: ADME, organism-based
# Parameters: dose 10 mg/kg, route intravenous
# TEST CONDITIONS: in vivo
MEASURED ATTRIBUTE: clearance (mL/min/kg)
Write it as a number; the unit mL/min/kg goes unstated.

Short answer for "CC(=O)N1CCC(n2cc(-c3cnc(N)c(-c4nc5ccccc5o4)c3)cn2)CC1.Cl" : clearance was 30

---

# TEST NAME: AUC in rat at 10 mg/kg, iv
# Format: ADME, organism-based
# Design: dose 10 mg/kg, route intravenous
# TEST CONDITIONS: plasma
MEASURED ATTRIBUTE: AUC (ng·h/mL)
Reply with just the number (in ng·h/mL).

Form field AUC, entry "CC(=O)N1CCC(n2cc(-c3cnc(N)c(-c4nc5ccccc5o4)c3)cn2)CC1.Cl" : 5600

From: ChEMBL document CHEMBL1177783
